Consider the following compounds; for each one, report its pIC50.
tested on: IL-4 stimulated CD23 upregulation in human Ramos B cells (JAK-1/JAK-3, Stat-6); test: Assay for Ramos B-Cell Line Stimulated with IL-4 (CD23 upregulation, FACS); type: cell-based; conditions: Table III Example 3
One number for each entry, as −log10 of the molar value.

Sample answers from the record:
compound: CCS(=O)(=O)N[C@@H](C)c1ccc(Nc2nc(Nc3cccc(S(N)(=O)=O)c3)ncc2F)cc1 [Compound I-27]
pIC50: 6.93
//
compound: Cc1cnc(Nc2ccc(S(N)(=O)=O)cc2)nc1Nc1ccc(CNS(=O)(=O)C2CC2)c(Cl)c1 [Compound I-129]
pIC50: 6.79
//
compound: Cc1cnc(Nc2ccc(S(N)(=O)=O)cc2)nc1Nc1ccc(CNS(=O)(=O)C(C)C)cc1 [Compound I-123]
pIC50: 7.08
//
compound: COCCNS(=O)(=O)c1cc(Nc2ncc(C)c(Nc3cccc(CNS(=O)(=O)C4CC4)c3)n2)ccc1C [Compound I-210]
pIC50: 6.89
//
compound: COCCCNS(=O)(=O)c1ccc(Nc2ncc(C)c(Nc3ccc(CNS(=O)(=O)C4CC4)cc3)n2)cc1 [Compound I-181]
pIC50: 7.14
//
compound: Cc1cnc(Nc2cccc(S(=O)(=O)NCc3ccncc3)c2)nc1Nc1ccc(CNS(=O)(=O)C2CC2)cc1 [Compound I-169]
pIC50: 6.85

State the recorded pIC50 for every item in the following list.
1. Cc1ccc(Nc2ncc(F)c(Nc3ccc(CNS(=O)(=O)C4CCCCC4)cc3)n2)cc1S(N)(=O)=O [Compound I-73]
2. Cc1cnc(Nc2cccc(S(=O)(=O)NCc3ccccc3)c2)nc1Nc1ccc(CNS(=O)(=O)C2CC2)cc1 [Compound I-154]
3. Cc1cnc(Nc2cccc(S(N)(=O)=O)c2)nc1Nc1cccc(CN(C)S(=O)(=O)C2CC2)c1 [Compound I-120]
4. Cc1cnc(Nc2cccc(S(N)(=O)=O)c2)nc1Nc1ccc2c(c1)CN(S(=O)(=O)C1CC1)C2 [II-8]
5. CCS(=O)(=O)N[C@H](C)c1ccc(Nc2nc(Nc3ccc(C)c(S(N)(=O)=O)c3)ncc2F)cc1 [Compound I-31]
6. Cc1ccc(Nc2ncc(F)c(Nc3ccc(CNS(=O)(=O)C4CC4)cc3)n2)cc1S(N)(=O)=O [Compound I-25]
7. Cc1ccc(Nc2ncc(F)c(Nc3ccc(CNS(=O)(=O)c4cccnc4)cc3)n2)cc1S(N)(=O)=O [Compound I-90]

Resp:
7.05
7.07
7.17
7.01
6.98
7.16
6.82

---

tested on: IL-4 stimulated CD23 upregulation in human Ramos B cells (JAK-1/JAK-3, Stat-6); experiment: Assay for Ramos B-Cell Line Stimulated with IL-4 (CD23 upregulation, FACS); format: cell-based; settings: Table III Example 3
recorded metric: pIC50
Answers are plain numbers, as −log10 of the molar value.

compound: Cc1cnc(Nc2ccc(S(N)(=O)=O)cc2)nc1Nc1ccc(CCNS(=O)(=O)C2CC2)cc1 [Compound I-53]
pIC50: 6.88
--
compound: Cc1ccc(Nc2ncc(C)c(Nc3ccc(CCNS(=O)(=O)C4CC4)cc3)n2)cc1S(N)(=O)=O [Compound I-55]
pIC50: 7.10
--
compound: Cc1cnc(Nc2cccc(S(N)(=O)=O)c2)nc1Nc1ccc(CCNS(=O)(=O)C2CC2)cc1 [Compound I-54]
pIC50: 7.03
--
compound: Cc1cnc(Nc2cccc(S(=O)(=O)Nc3ccccc3)c2)nc1Nc1ccc(CNS(=O)(=O)C2CC2)cc1 [Compound I-150]
pIC50: 7.05

State the recorded pIC50 for every item in the following list.
1. CCCC(=O)N(COC(C)=O)S(=O)(=O)c1cccc(Nc2ncc(C)c(Nc3cccc(CNS(=O)(=O)C4CC4)c3)n2)c1 [Compound I-225]
2. CCS(=O)(=O)NCCc1ccc(Nc2nc(Nc3ccc(C)c(S(N)(=O)=O)c3)ncc2C)cc1 [Compound I-40]
3. NS(=O)(=O)c1ccc(Nc2ncc(F)c(Nc3ccc(CNS(=O)(=O)C4CCCC4)cc3)n2)cc1 [Compound I-68]
4. Cc1ccc(Nc2ncc(C)c(Nc3ccc(CNS(=O)(=O)C4CC4)cc3)n2)cc1S(=O)(=O)Nc1ccccc1 [Compound I-202]
5. Cc1cnc(Nc2ccc(S(N)(=O)=O)cc2)nc1Nc1cccc(CNS(=O)(=O)C2CC2)c1 [Compound I-56]
6. CCS(=O)(=O)N[C@@H](C)c1ccc(Nc2nc(Nc3ccc(C)c(S(N)(=O)=O)c3)ncc2F)cc1 [Compound I-28]
7. COCCCNS(=O)(=O)c1cc(Nc2ncc(C)c(Nc3cccc(CNS(=O)(=O)C4CC4)c3)n2)ccc1C [Compound I-217]

Resp:
6.94
7.17
7.03
7.06
6.79
6.94
7.10

Req: Would you mind telling me what pIC50 value was observed for CCNS(=O)(=O)c1cc(Nc2ncc(C)c(Nc3cccc(CNS(=O)(=O)C4CC4)c3)n2)ccc1C [Compound I-213] ?
Resp: 7.05
